Where these numbers come from: the array DNA melting data of Ke et al. (doi:10.1101/2024.01.08.574731)

# measurement protocol: melting temperature; fluorescence melt of hairpins on a sequencing array, two-state fit, raised by 9.35 °C to match UV melts
# setup conditions: sodium 0.088 M
The following sequences are listed with their measured Tm values.
property measured: Tm

# sequence code, result
records = [
    ("GCGACGTTTCGC ((((....))))", "47.8 °C"),
    ("GCGACCGGAAACAGTCGC (((((.(....).)))))", "55.1 °C"),
    ("CGTAACGGAAACGTCACG (((.(((....))).)))", "41.9 °C"),
    ("GTTTTGGGAAACTGAAAC ((((..(....)..))))", "31.4 °C"),
    ("GCTGGGCGAAAGCAAAGC (((..((....))..)))", "54.1 °C"),
    ("GTTGTCGAAAGACTCAAC ((((((....)))..)))", "27.7 °C"),
    ("GCGAGAGGAAACTCTTGC ((.((((....)))).))", "50 °C"),
    ("GTTCACCGAAAGGTTAAC (((.(((....))).)))", "42.3 °C"),
    ("GCACCGCGAAAGCCGTGC ((((.((....)).))))", "62.2 °C"),
    ("GATCATACAAATGATC ((((((....))))))", "44.6 °C"),
    ("GATCGGTTCGCCGATC ((((((....))))))", "61.4 °C"),
    ("GATCATACCATGATC ((((((...))))))", "48.9 °C"),
]
